# Test system: SF-295 CNS
# assay-details: NCI tumour cell line growth inhibition, 48 h
readout-label: TGI (µM)
# number only, unit µM dropped from output

- compound: "Cc1cc(C)c(CNC(=O)c2cc(-c3ccc(CN4CCOCC4)cc3)cc3c2cnn3C2CCCC2)c(=O)[nH]1"
  target-of-assay: "SF-295 CNS"
  TGI [µM]: 36.5

Enquiry: GET /values?readout=TGI&item= "CC#Cc1nc2ccccc2c(=O)[nH]1"
Return: 20.6

Enquiry: GET /values?readout=TGI&item= C=C1C(=O)OC2C1CC[C@H](C)C1(O)C(O)CC(=O)[C@@]21C (stereo not given in full)
Return: 61.3

Enquiry: GET /values?readout=TGI&item= "CCOC(=O)c1cc(C(=O)c2ccc(Cl)cc2)n2ccc(-c3cc[n+](CC(=O)c4ccc(OC)cc4)cc3)cc12"
Return: 3.32

Enquiry: GET /values?readout=TGI&item= "CCOC(=O)c1ccc2c(c1)c1c(C)c3ccncc3c(C)c1n2C"
Return: 4.63

Enquiry: GET /values?readout=TGI&item= "O=C1C=CC(=O)c2c1c1c(c3c2C2c4ccccc4C3c3ccccc32)C2c3ccccc3C1c1ccccc12"
Return: 30.4

Enquiry: GET /values?readout=TGI&item= "O=C1Nc2c(Cl)cc(Cl)cc2/C1=N/N=C/c1ccccc1O"
Return: 47.7

Enquiry: GET /values?readout=TGI&item= Cn1nc(-c2cccs2)cc1/N=C(\N)C(C)(C#N)Cc1ccccc1 (stereo not given)
Return: 75.7

Enquiry: GET /values?readout=TGI&item= CC(C)(C)c1[nH]nc2c1C(c1cc3ccccc3[nH]c1=O)Nc1cc(C(=O)Nc3ccc(Cl)cc3)ccc1N2 (stereo not given)
Return: 8.82

---

# System: HCT-15 colon
# assay-details: NCI tumour cell line growth inhibition, 48 h
readout-label: TGI

- molecule: "CC(C)(C)N=Cc1ccccc1[O-].CC(C)(C)N=Cc1ccccc1[O-].[Co+2]"
  TGI: "> 100 µM"
- molecule: "CN1CC[C@]2(C)c3c(O)cccc3CC3CCCC1C32C (stereo partly specified)"
  TGI: "> 100 µM"
- molecule: "NC(CSC(=O)c1ccccc1)C(=O)O (stereo unspecified)"
  TGI: "> 100 µM"
- molecule: "CC1(C)OCC(C2CCC3(C)C4=CCC5C(C)(C)C(O)CCC5(C)C4CCC23C)CC(O)C1O (stereo unspecified)"
  TGI: "32.8 µM"
- molecule: "CC1=C(SCCC(=O)OCC(=O)NCCC[Te]c2ccccc2)C(=O)c2ccccc2C1=O"
  TGI: "11.4 µM"

Enquiry: API: value(readout= TGI, system= HCT-15 colon, query= CC(NC(=O)C(C)C(=O)Nc1ccc(C(F)(F)F)cc1)C(N)=O (stereo unspecified) )
Return: > 100 µM

Enquiry: API: value(readout= TGI, system= HCT-15 colon, query= CC1CC2=C(C(=O)O1)C(c1ccccc1)Nc1ccccc1N2 (stereo unspecified) )
Return: > 100 µM

Enquiry: API: value(readout= TGI, system= HCT-15 colon, query= O=C(Nc1ccn(C2CC(O)C(CO)O2)c(=O)n1)c1ccccc1 (stereo unspecified) )
Return: > 100 µM

Enquiry: API: value(readout= TGI, system= HCT-15 colon, query= Cc1[nH]c2c(C)cccc2c1C1Cc2ccccc2N1 (stereo unspecified) )
Return: 49.2 µM

Enquiry: API: value(readout= TGI, system= HCT-15 colon, query= "O=C(O)c1ccccc1SCc1cccc2c(=O)c3ccc(Cl)cc3oc12" )
Return: > 50 µM

Enquiry: API: value(readout= TGI, system= HCT-15 colon, query= "O=C1CCCn2c(nc3ccccc32)N1" )
Return: > 100 µM
